system_name: kappa brain receptor (Cavia porcellus, UniProt P41144)
Construct: fresh guinea pig brain homogenates
Sequence (P41144 whole entry): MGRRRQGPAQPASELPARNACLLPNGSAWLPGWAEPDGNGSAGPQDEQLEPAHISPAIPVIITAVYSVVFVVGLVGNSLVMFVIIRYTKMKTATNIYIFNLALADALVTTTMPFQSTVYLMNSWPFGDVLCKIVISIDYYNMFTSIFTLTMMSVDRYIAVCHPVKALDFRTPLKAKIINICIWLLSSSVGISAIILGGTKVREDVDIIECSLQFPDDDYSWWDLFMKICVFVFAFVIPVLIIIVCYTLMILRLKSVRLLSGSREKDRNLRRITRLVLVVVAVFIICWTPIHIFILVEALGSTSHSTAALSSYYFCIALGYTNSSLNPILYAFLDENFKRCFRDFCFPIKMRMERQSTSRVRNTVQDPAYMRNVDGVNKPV
assay_name: Kappa brain receptor binding (binding to kappa sites)
condition_description: guinea pig brain homogenate, tritiated kappa selective compound, 40 min, 25° C.
Where a name gives a salt, the structure may show the parent alone.
Task for the reader: assign each of the following compounds its reported log10 of Ki.
All values: log10 Ki [nM].

1) CN(C)CC1CCC(C)(C)CN1C(=O)Cc1ccc2c(c1)CCCC2=O (racemic) [Example 6, hydrochloride] : 1.95
2) CN(C)CC1CC(C)(C)CCN1C(=O)Cc1ccc2c(c1)CCCC2=O (racemic) [Example 5, hydrochloride] : 1.81
3) CN(C[C@@H]1CCCCN1C(=O)Cc1ccc2c(c1)CCCC2=O)C1CC1 [Example 12, hydrochloride] : 1.70
4) CN(C)C[C@@H]1CC(C)(C)CCN1C(=O)Cc1ccc2c(c1)CCCC2=O : 1.36

// below: log10 of Ki requested for another compound
Given `CC(C)N(C)C[C@@H]1CCCCN1C(=O)Cc1ccc2c(c1)CCCC2=O` , state its recorded log10 of Ki.
0.46
